FYI, the data here is from patent US20260042764A1.

Each item that follows carries a reported IC50.
target: Avi-KRAS G12V (2-169) GTP/RAF1 RBD-3xFLAG (51-131) (Homo sapiens, UniProt P01116, G12V); construct: Avi-KRAS G12V (2-169); test: Raf1-KRAS G12V-GTP disruption HTRF assay (Biological Example 3); assay type: binding; details: KRAS G12V, GTP-loaded
Sequence (P01116 2-169 isoform P01116-2 G12V): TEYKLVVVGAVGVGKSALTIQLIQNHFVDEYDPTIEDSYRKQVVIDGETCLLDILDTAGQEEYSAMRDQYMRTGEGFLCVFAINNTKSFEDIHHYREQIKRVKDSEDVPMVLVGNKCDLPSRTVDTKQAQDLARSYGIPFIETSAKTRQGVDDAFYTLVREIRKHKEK

{"COMPOUND": "CCN(c1nc(OC[C@@]23CCCN2C[C@H](F)C3)nc2c(F)c(-c3ccc(F)c4sc(N)c(C#N)c34)c(C(F)(F)F)cc12)[C@H]1C[C@H]2CN(CC(F)(F)F)C(=O)N2C1 (atropisomer, axis not shown)", "TARGET OF ASSAY": "Avi-KRAS G12V (2-169) GTP/RAF1 RBD-3xFLAG (51-131) (Homo sapiens, UniProt P01116, G12V)", "IC50": "100 to 1000 nM"}

# context switch: different compound, same IC50
Query string: Quote IC50 reported for CCN(c1nc(OC[C@@]23CCCN2C[C@H](F)C3)nc2c(F)c(-c3ccc(F)c4sc(N)c(C#N)c34)c(C(F)(F)F)cc12)[C@H]1C[C@H]2C[C@H](C)C(=O)N2C1 (atropisomer, axis not shown) please.
Result string: ≤ 100 nM
